test: Volume of distribution in steady state in rat at 1 mg/kg, iv; format: ADME, organism-based; parameters: dose 1 mg/kg, route intravenous; conditions: in vivo, read-out: Vdss
value.type: Vd (L/kg)
Return type: number; implicit unit L/kg.

For record CO/C(C)=C1/NC(=O)[C@H]([C@@H](C)O)NC(=O)c2csc(n2)-c2cc(OC)c(-c3nc(C(=O)NCCCN4CCOCC4)cs3)nc2-c2csc(n2)[C@@H]2COC(=O)c3c4c5c(cccc5n3O)COC(=O)[C@@H](O[C@H]3C[C@](C)(O)[C@H](N(C)C)[C@H](C)O3)[C@@H](OC4)[C@H](NC(=O)c3csc1n3)c1nc(cs1)C(=O)N2 the listed Vd is 15.5

Source listed as ChEMBL document CHEMBL1136943.
